Where these numbers come from: ChEMBL document CHEMBL4732138

# Assayed target: Tubulin (Homo sapiens) (UniProt P68371+Q9H4B7+P0DPH7+P68366+Q13509+Q71U36+P04350+Q3ZCM7+P07437+P68363+Q9BQE3+Q6PEY2+Q13885+Q9BVA1+Q9BUF5)
# Protocol details: Stabilization of microtubules in human QBI293 cells assessed as fold change in acetylated tubulin levels at 1 uM after 4 hrs by ELISA relative to cevipabulin
# Assay type: cell-based
Each entry below carries its recorded fold change (FC).
# respond with the number and nothing more

Some solved cases for reference:
Request: Would you mind telling me what fold change (FC) value was observed for C[C@H](Nc1c(-c2c(F)cc([N+](=O)[O-])cc2F)c(Cl)nc2ncnn12)C(F)(F)F ?
Result: 0.6

Request: Would you mind telling me what fold change (FC) value was observed for C[C@H](Nc1c(-c2c(F)cc(S(=O)(=O)CCCN(C)C)cc2F)c(Cl)nc2ncnn12)C(F)(F)F ?
Result: 0.24

Request: Would you mind telling me what fold change (FC) value was observed for CC(C)[C@@H](C)Nc1c(-c2ccc(C#N)cc2F)c(Cl)nc2ncnn12 (stereo in doubt; 68) ?
Result: 0.47

Request: Would you mind telling me what fold change (FC) value was observed for C[C@H](Nc1c(-c2c(F)cc(O)cc2F)c(Cl)nc2ncnn12)C(F)(F)F ?
Result: 0.23

Request: Would you mind telling me what fold change (FC) value was observed for Oc1c(-c2c(F)cc(F)cc2F)c(Cl)nc2ncnn12 ?
Result: 0.17

More entries:
Request: Would you mind telling me what fold change (FC) value was observed for Fc1cc(F)c(-c2c(Cl)nc3ncnn3c2NCc2ccccc2)c(F)c1 ?
Result: 0.16

Request: Would you mind telling me what fold change (FC) value was observed for Fc1cc(F)c(-c2c(Cl)nc3ncnn3c2N2CCCCCCC2)c(F)c1 ?
Result: 0.36

Request: Would you mind telling me what fold change (FC) value was observed for C[C@H](Nc1c(-c2c(F)cc(Cl)cc2F)c(Cl)nc2ncnn12)C(F)(F)F ?
Result: 0.31

Request: Would you mind telling me what fold change (FC) value was observed for C[C@H](Nc1c(-c2ccc(F)c(F)c2)c(Cl)nc2ncnn12)C(F)(F)F ?
Result: 0.05
